Hello, the source for this data is patent US10081624B2, in case you need it.

Biological target: HDAC1 enzyme (Homo sapiens)
Construct: prepared by transducing full length HDAC1 and HDAC6 genes into Sf-9 insect cells; GST; purchased SignalChem; host or cells: Sf-9 insect cells
Sequence (Q13547 whole entry): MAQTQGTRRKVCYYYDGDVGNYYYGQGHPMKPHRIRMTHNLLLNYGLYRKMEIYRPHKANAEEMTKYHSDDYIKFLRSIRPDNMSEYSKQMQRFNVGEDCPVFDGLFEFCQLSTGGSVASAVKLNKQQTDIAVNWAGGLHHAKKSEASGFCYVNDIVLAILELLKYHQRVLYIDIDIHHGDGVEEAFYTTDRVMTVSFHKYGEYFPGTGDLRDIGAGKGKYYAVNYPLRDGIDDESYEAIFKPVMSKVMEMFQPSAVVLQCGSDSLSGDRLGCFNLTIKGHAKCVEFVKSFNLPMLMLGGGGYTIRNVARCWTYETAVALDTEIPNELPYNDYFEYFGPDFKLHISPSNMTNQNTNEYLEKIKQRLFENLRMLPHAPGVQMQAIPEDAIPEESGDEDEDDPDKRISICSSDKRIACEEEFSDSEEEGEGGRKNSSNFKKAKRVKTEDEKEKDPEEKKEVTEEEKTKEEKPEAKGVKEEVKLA
Assay: HDAC1 enzyme inhibitory assay (HDAC-Glo I/II Assay kit)
Format: biochemical
Conditions: 1 μM test compound; read-out: HDAC1 inhibitory rate (%) (1 μM)
Documented inhibition at 1 µM across a set of compounds

COMPOUND	UNIT ABBREVIATION	inhibition at 1 µM
Cn1nccc1C(=O)N1CCCC[C@@H]1CNC(=O)c1ccc(-c2noc(C(F)(F)F)n2)cc1 [Example 164]	%	17
O=C(NCC1COCCN1C(=O)c1ccccc1)c1ccc(-c2noc(C(F)(F)F)n2)cc1 (centres unmarked) [Example 1]	%	22
CN(C(=O)C[C@H]1COCCN1C(=O)c1ccccc1)c1ccc(-c2noc(C(F)(F)F)n2)cc1 [Example 161]	%	6
O=C(NCC1COCCN1C(=O)c1ccccc1)c1ccc(-c2noc(C(F)(F)F)n2)cc1 (stereo in doubt) [Example 111]	%	21
O=C(NCC1COCCN1C(=O)c1ccccc1)c1ccc(-c2noc(C(F)(F)F)n2)s1 (centres unmarked) [Example 210]	%	23
Cn1nccc1C(=O)N1CCOC[C@@H]1CNC(=O)c1ccc(-c2noc(C(F)(F)F)n2)cc1 [Example 38]	%	25
COc1cccc(C(=O)N2CCOC[C@@H]2CNC(=O)c2ccc(-c3noc(C(F)(F)F)n3)cc2)c1 [Example 42]	%	16
O=C(NC[C@H]1COCCN1C(=O)C1CCc2ccccc2O1)c1ccc(-c2noc(C(F)(F)F)n2)cc1 (some centres unmarked) [Example 52]	%	18
O=C(NCC1COCCN1C(=O)N1CCOCC1)c1ccc(-c2noc(C(F)(F)F)n2)cc1 (stereo in doubt) [Example 99]	%	9
O=C(NC[C@@H]1COCCN1C(=O)C1CC1)c1ccc(-c2noc(C(F)(F)F)n2)cc1 [Example 147]	%	7
CN(C(=O)N1CCOCC1CNC(=O)c1ccc(-c2noc(C(F)(F)F)n2)cc1)c1ccccc1 (stereo in doubt) [Example 98]	%	15
COC[C@H]1CCCN1C(=O)N1CCOC[C@@H]1CNC(=O)c1ccc(-c2noc(C(F)(F)F)n2)cc1 [Example 272]	%	5
O=C(NC[C@@H]1COCCN1C(=O)CC1CC1)c1ccc(-c2noc(C(F)(F)F)n2)cc1 [Example 148]	%	10
O=C(O)c1cccc(C(=O)N2CCOC[C@@H]2CNC(=O)c2ccc(-c3noc(C(F)(F)F)n3)cc2)c1 [Example 269]	%	7

###

Molecular target: HDAC6 enzyme (Homo sapiens)
Construct: prepared by transducing full length HDAC1 and HDAC6 genes into Sf-9 insect cells; GST; purchased SignalChem; host or cells: Sf-9 insect cells
Sequence (Q9UBN7 1-1215): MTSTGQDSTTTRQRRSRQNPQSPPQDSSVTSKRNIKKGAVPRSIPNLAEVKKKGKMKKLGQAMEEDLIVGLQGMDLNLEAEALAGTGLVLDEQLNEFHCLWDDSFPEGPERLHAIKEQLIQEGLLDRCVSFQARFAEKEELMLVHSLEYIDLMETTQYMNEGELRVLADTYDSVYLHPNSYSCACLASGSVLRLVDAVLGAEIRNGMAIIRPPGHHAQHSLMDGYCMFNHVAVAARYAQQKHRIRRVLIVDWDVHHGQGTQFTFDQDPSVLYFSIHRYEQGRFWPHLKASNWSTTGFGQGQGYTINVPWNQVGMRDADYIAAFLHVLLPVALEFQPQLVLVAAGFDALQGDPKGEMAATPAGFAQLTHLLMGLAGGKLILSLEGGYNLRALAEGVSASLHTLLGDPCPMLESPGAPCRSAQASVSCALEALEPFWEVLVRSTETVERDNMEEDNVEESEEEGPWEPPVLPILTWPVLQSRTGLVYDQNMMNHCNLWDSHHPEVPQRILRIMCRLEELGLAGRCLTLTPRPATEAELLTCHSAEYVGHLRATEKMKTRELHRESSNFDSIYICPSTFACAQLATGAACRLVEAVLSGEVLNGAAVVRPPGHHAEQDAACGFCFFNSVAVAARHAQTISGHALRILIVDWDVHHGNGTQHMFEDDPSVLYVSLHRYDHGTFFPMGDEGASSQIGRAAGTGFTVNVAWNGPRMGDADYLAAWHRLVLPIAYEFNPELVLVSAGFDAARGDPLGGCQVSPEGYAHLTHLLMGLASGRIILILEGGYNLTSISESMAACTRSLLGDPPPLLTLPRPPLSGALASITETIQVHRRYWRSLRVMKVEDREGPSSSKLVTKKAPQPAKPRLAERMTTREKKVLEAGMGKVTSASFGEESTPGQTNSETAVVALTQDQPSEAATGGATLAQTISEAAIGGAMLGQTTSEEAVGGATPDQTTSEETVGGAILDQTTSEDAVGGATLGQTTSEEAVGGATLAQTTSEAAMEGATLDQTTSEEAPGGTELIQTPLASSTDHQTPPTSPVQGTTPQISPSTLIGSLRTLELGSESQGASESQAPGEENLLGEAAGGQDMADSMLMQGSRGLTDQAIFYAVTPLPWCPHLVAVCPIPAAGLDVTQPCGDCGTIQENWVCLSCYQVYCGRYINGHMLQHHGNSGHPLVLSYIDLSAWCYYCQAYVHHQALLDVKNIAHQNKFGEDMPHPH
Assay: HDAC6 enzyme inhibitory assay (HDAC-Glo I/II Assay kit)
Assay type: biochemical
Settings: 1 μM test compound; read-out: HDAC6 inhibitory rate (%) (1 μM)

COMPOUND	TARGET ENTITY	inhibition at 1 µM, %
O=C(NCC1CCc2ccccc2N1C(=O)C1CC1)c1ccc(-c2noc(C(F)(F)F)n2)cc1 (stereo not shown)	HDAC6 enzyme (Homo sapiens)	95
O=C(NC[C@H]1COCCN1C(=O)N1CCC(CCO)C1)c1ccc(-c2noc(C(F)(F)F)n2)cc1 (stereo partly shown)	HDAC6 enzyme (Homo sapiens)	90
O=C(NC[C@H]1COCCN1C(=O)N1CC[C@@H](O)C1)c1ccc(-c2noc(C(F)(F)F)n2)cc1	HDAC6 enzyme (Homo sapiens)	85
O=C(NC[C@@H]1COCCN1C(=O)C1CCCCC1)c1ccc(-c2noc(C(F)(F)F)n2)cc1	HDAC6 enzyme (Homo sapiens)	99
